Each item that follows carries a reported growth.
tested on: HL-60(TB) leukemia; assay: NCI-60 one-dose screen, 48 h (100 = growth as untreated, 0 = no growth, -100 = all killed); details: 10 µM unless noted
Compounds without any hit were thinned out: in the full panel of roughly 83,000, 20% have a hit.
Note: unit % is implicit; provide only the numeric part.

compound="C=CC1=C(C)C2=NC1=CC1=NC(=CC3=C(C)C4=C(O)C(C(=O)O)C(=C5NC(=C2)C(C)C5CCC(=O)O)C4=N3)C(CC)=C1C (centres undefined)" metric=growth unit_label=% experimental_result=89.4
compound=O=C1/C(=C/c2ccc([N+](=O)[O-])cc2)COc2ccc(O)cc21 metric=growth unit_label=% experimental_result=50.9
compound=O=C(/C=C/c1ccco1)Nc1ncc(Cc2cc(Cl)ccc2Cl)s1 metric=growth unit_label=% experimental_result=-50
compound="CCOC(=O)C1=C(C)NC(=O)NC1c1ccc(OCC(=O)N/N=C/c2ccc(Cl)cc2)cc1 (centres undefined)" metric=growth unit_label=% experimental_result=98.3
compound=Cc1cccc(N(C)c2cccc3c2C(=O)[Se]C3)c1C metric=growth unit_label=% experimental_result=-17.1

Below: the item to evaluate.
Lookup: Report growth for Cc1c2c(c(C)c3c1oc1cc(O)ccc13)C(=O)N(CCN1CCCCC1)C2=O please.
Found: 99.3

----------
system: ACHN renal; assay: NCI-60 one-dose screen, 48 h; settings: 10 µM unless noted
Compounds without any hit were thinned out: in the full panel of roughly 83,000, 20% have a hit. Active and inactive are the calls of the source. Rule for the calls: active = growth percent below 10; inactive = the rest.
Allowed answers: TRUE (active), FALSE (inactive)

// below: answered compounds
compound="O=C1NC(=O)C(CN2C(=O)C3(c4ccccc42)[C@H](Cl)C(=O)N3c2ccccc2)C(=O)N1 (stereo partly specified)" system_under_test="ACHN renal" class_assignment=FALSE
compound=CN1CC2CCC(C1)C2=O system_under_test="ACHN renal" class_assignment=FALSE
compound=Oc1ccccc1OB(Oc1ccccc1O)N(CCCl)CCCl system_under_test="ACHN renal" class_assignment=FALSE
compound=O=[N+]([O-])c1ccc(F)c([N+](=O)[O-])c1F system_under_test="ACHN renal" class_assignment=FALSE
compound=CCN(CC)c1ccc(C=C2C(=O)NC(=S)NC2=O)cc1 system_under_test="ACHN renal" class_assignment=FALSE

Lookup: Fill in: this test's call for Nc1c(Br)cc2c3c(cccc13)-c1ccccc1-2 is ___
Found: FALSE

Lookup: Fill in: this test's call for CC(=O)O[C@H]1CCC2C3CCC4=C/C(=N/O)CCC4(C)C3CCC21C (stereo partly specified) is ___
Found: FALSE

Lookup: Fill in: this test's call for COc1ccc(/C=C(/C(=O)N2CCCC2)c2cc(OC)c(OC)c(OC)c2)cc1N is ___
Found: FALSE

Lookup: Fill in: this test's call for C[C@]12CC[C@@H]3C4=C(CC[C@H]3[C@@H]1CC[C@@H]2O)CC(=O)CC4 is ___
Found: FALSE

Lookup: Fill in: this test's call for C[C@]12CCc3sc(-c4ccc(Cl)cc4)nc3C1=CC[C@@H]1[C@@H]2CC[C@]2(C)C(=O)CC[C@@H]12 is ___
Found: FALSE

Lookup: Fill in: this test's call for CNC(=O)Oc1ccccc1 is ___
Found: FALSE

Lookup: Fill in: this test's call for CC(C)[C@]12O[C@H]1[C@@H]1O[C@]13[C@]1(O[C@H]1C[C@H]1C4=C(CC[C@@]13C)C(=O)OC4)[C@@H]2OC(=O)OC(C)(C)C is ___
Found: TRUE

Lookup: Fill in: this test's call for O=C1C=CC(=O)C2C1C1(Cl)C(Cl)=C(Cl)C2(Cl)C1(Cl)Cl (stereo unspecified) is ___
Found: FALSE

Lookup: Fill in: this test's call for CC12CC[C@H](O)C=C1/C(=N/O)CC1C2CCC2(C)C1CC[C@@H]2O (stereo partly specified) is ___
Found: FALSE

Lookup: Fill in: this test's call for O=S(=O)(F)c1ncnc2nc[nH]c12 is ___
Found: FALSE

Lookup: Fill in: this test's call for COc1cc(C2CC(=O)Nc3nc(N)[se]c32)cc(OC)c1OC (stereo unspecified) is ___
Found: FALSE

Lookup: Fill in: this test's call for CCOc1cc(/C=N\Nc2nnc(C)n2N)c(C)cc1N(CCCl)CCCl is ___
Found: FALSE

Lookup: Fill in: this test's call for O=C(CC1(O)C(=O)Nc2ccc(F)cc21)c1ccc(C(=O)NCC2CCC3(CC2)OOC2(CCCCC2)OO3)cc1 (stereo unspecified) is ___
Found: TRUE

Lookup: Fill in: this test's call for CNC(C)Cc1ccccc1 (stereo unspecified) (tested in a mixture with another compound) is ___
Found: FALSE

Lookup: Fill in: this test's call for CCC[CH2][Sn]1([CH2]CCC)[O]C(=O)c2cccc([N+](=O)[O-])c2C(=O)[O]1 is ___
Found: TRUE

Lookup: Fill in: this test's call for CC(=O)[O][Hg][c]1nc2c(c(=O)n(C)c(=O)n2C)n1C is ___
Found: FALSE
